Entries and their MIC80
test system: Candida albicans; test: Antifungal activity against Candida albicans by serial dilution method; assay type: functional
Reply with just the number (in µg/mL).

{"structure.smiles": "Fc1ccc(OCc2nc3c(OCCCNCc4cccnc4)cccc3o2)c(F)c1", "target.under.test": "Candida albicans", "assay.metric": "MIC80", "measured.value": 1}
{"structure.smiles": "Fc1ccc(OCc2nc3c(OCCCNCc4cccnc4)cccc3o2)cc1", "target.under.test": "Candida albicans", "assay.metric": "MIC80", "measured.value": 16}
{"structure.smiles": "CCOC(=O)c1oc2cccc(OCCCNCc3cccnc3)c2c1C", "target.under.test": "Candida albicans", "assay.metric": "MIC80", "measured.value": 1}
{"structure.smiles": "O=C(Nc1cccc(F)c1)c1cc2c(OCCCNCc3cccnc3)cccc2[nH]1", "target.under.test": "Candida albicans", "assay.metric": "MIC80", "measured.value": 128}

Name the reported MIC80 value associated with the compound OC(Cn1cncn1)(Cn1cncn1)c1ccc(F)cc1F
0.25

Need MIC80, item Fc1cccc(F)c1OCc1nc2c(OCCCNCc3cccnc3)cccc2o1
64

Reported MIC80, compound Fc1cc(F)c(OCc2nc3c(OCCCNCc4cccnc4)cccc3o2)c(F)c1 : ____
16

Which MIC80 is reported for this compound? c1ccc(OCc2nc3c(OCCCNCc4cccnc4)cccc3o2)cc1
16

Tell me the measured MIC80 of Fc1ccccc1OCc1nc2c(OCCCNCc3cccnc3)cccc2o1 , please.
4

Look up MIC80: Cc1c(COc2ccc(F)c(F)c2F)oc2cccc(OCCCNCc3cccnc3)c12
0.125

Give the measured MIC80 of Clc1cccc(Cl)c1SCc1cc2c(OCCCNCc3cccnc3)cccc2[nH]1 .
64

So what does the record say about MIC80 for Fc1ccc(OCc2nc3c(OCCCNCc4cccnc4)cccc3o2)c(F)c1F ?
0.25

Form field: reported MIC80 of c1ccc(SCc2cc3c(OCCCNCc4cccnc4)cccc3[nH]2)cc1
128

* * *

tested on: Cryptococcus neoformans; assay: Antifungal activity against Cryptococcus neoformans by serial dilution method; format: functional
Listing: MIC80 of selected molecules

Past entries and their recorded results:
{"molecule": "Fc1cccc(F)c1OCc1nc2c(OCCCNCc3cccnc3)cccc2o1", "MIC80": "64 µg/mL"}
{"molecule": "O=C(Nc1cccc(F)c1)c1cc2c(OCCCNCc3cccnc3)cccc2[nH]1", "MIC80": "128 µg/mL"}
{"molecule": "O=C(Nc1ccc(F)c(F)c1)c1cc2c(OCCCNCc3cccnc3)cccc2[nH]1", "MIC80": "128 µg/mL"}
{"molecule": "Fc1ccc(OCc2nc3c(OCCCNCc4cccnc4)cccc3o2)c(F)c1F", "MIC80": "64 µg/mL"}
{"molecule": "O=C(Nc1ccccc1)c1cc2c(OCCCNCc3cccnc3)cccc2[nH]1", "MIC80": "> 128 µg/mL"}
{"molecule": "Fc1ccc(OCc2nc3c(OCCCNCc4cccnc4)cccc3o2)c(F)c1", "MIC80": "16 µg/mL"}
{"molecule": "c1ccc(SCc2cc3c(OCCCNCc4cccnc4)cccc3[nH]2)cc1", "MIC80": "64 µg/mL"}
{"molecule": "Fc1cc(F)c(OCc2nc3c(OCCCNCc4cccnc4)cccc3o2)c(F)c1", "MIC80": "16 µg/mL"}
{"molecule": "Fc1ccccc1OCc1nc2c(OCCCNCc3cccnc3)cccc2o1", "MIC80": "16 µg/mL"}
{"molecule": "CCOC(=O)c1oc2cccc(OCCCNCc3cccnc3)c2c1C", "MIC80": "64 µg/mL"}

Need MIC80, item Cc1c(COc2ccc(F)c(F)c2F)oc2cccc(OCCCNCc3cccnc3)c12
0.5 µg/mL

I would be grateful if you could share the reported MIC80 for Clc1cccc(Cl)c1SCc1cc2c(OCCCNCc3cccnc3)cccc2[nH]1 .
64 µg/mL

Query: MIC80; subject: O=C(Nc1ccc(Cl)cc1)c1cc2c(OCCCNCc3cccnc3)cccc2[nH]1
> 128 µg/mL

Which value of MIC80 has been reported for O=C(Nc1ccccc1Cl)c1cc2c(OCCCNCc3cccnc3)cccc2[nH]1 in the records?
> 128 µg/mL

Give the measured MIC80 of Fc1ccc(OCc2cc3c(OCCCNCc4cccnc4)cccc3[nH]2)cc1 .
128 µg/mL

Field request: MIC80 | item: OC(Cn1cncn1)(Cn1cncn1)c1ccc(F)cc1F [FLUCONAZOLE]
1 µg/mL

# lookup: MIC80 of Fc1ccc(OCc2nc3c(OCCCNCc4cccnc4)cccc3o2)cc1
16 µg/mL

Recorded MIC80 for O=[N+]([O-])c1cccc(OCc2nc3c(OCCCNCc4cccnc4)cccc3o2)c1 , please?
> 64 µg/mL

I have this molecule here, CCOC(=O)c1cc2c(OCCCNCc3cccnc3)cccc2[nH]1 , and I need its recorded MIC80.
> 128 µg/mL

For Fc1ccc(OCc2cc3c(OCCCNCc4cccnc4)cccc3[nH]2)c(F)c1 , what is its reported MIC80?
64 µg/mL

So what's the measured MIC80 for this one? c1ccc(OCc2nc3c(OCCCNCc4cccnc4)cccc3o2)cc1
64 µg/mL
